B1: TFE3 (parent)
chain: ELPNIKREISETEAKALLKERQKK

- Variants of: B1
- Protocol Summary: protein stability index of a GFP-peptide fusion (GPS, HEK-293T) (PSI 1-6); higher = more stable;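 also: lentivirally expressed fusions sorted by FACS into six bins by GFP to DsRed ratio, PSI derived from sequencing read proportions per bin multiplied by bin number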
- Experimental Parameters: c terminus: a fixed tail appended
Measured protein stability index values are reported for all entries that follow.
Quick one: just the number, no unit, thanks!

// worked examples, protein stability index included
{"columns": ["Entry Sequence", "Value Observed"],
 "data": [
  ["ELPNIKREISETEAKLLLKERQKK [A16L]", 2.34],
  ["ELPNIKREISETEAKALKKERQKK [L18K]", 3.19],
  ["ELPNIKREISETEAKYLLKERQKK [A16Y]", 2.37],
  ["ELPNIKREISETEAKAELKERQKK [L17E]", 2.25],
  ["ELPNTKREISETEAKALLKERQKK [I5T]", 4.7],
  ["ELPNIKREISETEAKALLKEWQKK [R21W]", 2.15]
]}

--- query ---
// sample ELPNIKREISETEAKALLKEAQKK [R21A] , its protein stability index was 3.07
